Every entry's value here was drawn from the supplement of paper PMC4862054.

System: SK-BR-3
Test: normalised viability (% of control), CellTiter-Blue; higher = more viable cells (100 = DMSO, 0 = benzethonium chloride kill control)
Details: incubation time: 72 h
Quantity Measured: normalised viability (%)
Give the value in % but do not write % after it.

COc1cc(Nc2ncc3c(n2)-c2ccc(Cl)cc2C(c2c(F)cccc2OC)=NC3)ccc1C(=O)O [MLN8237] (1 nM): 103
Cc1c2oc3c(C)ccc(C(=O)N[C@@H]4C(=O)N[C@H](C(C)C)C(=O)N5CCC[C@H]5C(=O)N(C)CC(=O)N(C)[C@@H](C(C)C)C(=O)O[C@@H]4C)c3nc-2c(C(=O)N[C@@H]2C(=O)N[C@H](C(C)C)C(=O)N3CCC[C@H]3C(=O)N(C)CC(=O)N(C)[C@@H](C(C)C)C(=O)O[C@@H]2C)c(N)c1=O [Dactinomycin] (0.1 nM): 96
CN1CC[C@H](c2c(O)cc(O)c3c(=O)cc(-c4ccccc4Cl)oc23)[C@H](O)C1 [Alvocidib] (1 nM): 97.4
CS(=O)(=O)c1ccc(C(=O)Nc2ccc(Cl)c(-c3ccccn3)c2)c(Cl)c1 [Vismodegib] (1 nM): 93.7
CN1CCC(COc2cnc(-c3cccc(Cn4nc(-c5cccc(C#N)c5)ccc4=O)c3)nc2)CC1 (1 nM): 96.4

Moving on to another compound below.
Task: Enter reported normalised viability observed with SK-BR-3 for COc1cccc2c1C(=O)c1c(O)c3c(c(O)c1C2=O)C[C@@](O)(C(=O)CO)C[C@@H]3O[C@H]1C[C@H](N)[C@H](O)[C@H](C)O1 [Doxorubicin] (0.1 nM)
Output: 90.3
